Multi-source literature compilation: pKi on Substance-K receptor (Homo sapiens, UniProt P21452).
Target: Substance-K receptor (Homo sapiens, UniProt P21452)
Sequence (P21452 whole entry): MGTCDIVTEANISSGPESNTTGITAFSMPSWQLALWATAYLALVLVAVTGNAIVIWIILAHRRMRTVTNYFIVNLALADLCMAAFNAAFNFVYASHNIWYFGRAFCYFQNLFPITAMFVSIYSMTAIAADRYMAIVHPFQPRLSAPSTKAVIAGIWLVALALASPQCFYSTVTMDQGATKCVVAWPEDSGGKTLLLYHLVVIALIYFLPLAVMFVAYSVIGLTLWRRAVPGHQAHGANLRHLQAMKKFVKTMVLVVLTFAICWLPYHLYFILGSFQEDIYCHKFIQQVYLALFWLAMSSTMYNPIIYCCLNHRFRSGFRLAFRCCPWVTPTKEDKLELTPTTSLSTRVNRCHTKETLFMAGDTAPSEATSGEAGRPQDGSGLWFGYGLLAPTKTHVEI
pKi: −log10 of the molar value.
measured-property: pKi

* O=C(NC1(C(=O)N[C@@H](CCCN2CCN(CC3CCOCC3)CC2)Cc2ccccc2)CCCC1)c1cc2cc(Cl)ccc2o1 | 9.60
* CC(C)C[C@@H](NC(=O)[C@H](Cc1ccccc1)NC(=O)C1(NC(=O)c2cc3ccccc3s2)CCCCC1)C(N)=O | 7.15
* CN(Cc1ccccc1)C(=O)N[C@H](Cc1ccccc1)C(=O)NCCCN1CCOCC1 | 5.52

A = CC(C)C[C@H](NC(=O)[C@H](Cc1ccccc1)NC(=O)C1(NC(=O)c2cc3ccccc3s2)CCCCC1)C(N)=O
B = CO/N=C(\COCc1cc(C(F)(F)F)cc(C(F)(F)F)c1)C(CCN1CCC(CN2CCCCC2)CC1)c1ccc(Cl)c(Cl)c1 (centres undefined)
Query: Could you please tell me which of these two has the higher pKi: A or B ? Which one? Tell me its label.
Reply: B
